- System: velvetleaf (Abutilon theophrasti)
- testProtocol: Test A pre/postemergence
- Assay type: in vivo
- conditions: Postemergence, 125 g ai/ha; 0 to 100 scale (0 no effect, 100 complete control)
So I've got a bunch of compounds here, and I need their Plant response rating, Velvetleaf values.
In your answer, state the number alone without any accompanying words.

Req: Value lookup for Plant response rating, Velvetleaf; key = Nc1nc(-c2ccc(Br)cc2)nc(C(=O)O)c1Br
Resp: 85

Req: Value lookup for Plant response rating, Velvetleaf; key = CCOC(=O)c1nc(-c2ccc(C(F)(F)F)cc2)nc(N)c1Cl
Resp: 70

Req: Value lookup for Plant response rating, Velvetleaf; key = CCCCOC(=O)c1nc(C2CC2)nc(N)c1Cl
Resp: 80

Req: Value lookup for Plant response rating, Velvetleaf; key = Nc1nc(-c2ccc(Cl)cc2)nc(C(=O)OCc2ccccc2)c1Cl
Resp: 90

Req: Value lookup for Plant response rating, Velvetleaf; key = CCOC(=O)c1nc(-c2ccc(Cl)c(Cl)c2)nc(N)c1Cl
Resp: 70

Req: Value lookup for Plant response rating, Velvetleaf; key = Nc1nc(C2CC2)nc(C(=O)OCC2COC(=O)O2)c1Cl (stereo not shown)
Resp: 85

Req: Value lookup for Plant response rating, Velvetleaf; key = CNc1nc(-c2ccc(Cl)cc2)nc(C(=O)OC)c1Cl
Resp: 75

Req: Value lookup for Plant response rating, Velvetleaf; key = Nc1nc(C2CC2)nc(C(=O)OCC2CO2)c1Cl (stereo not shown)
Resp: 90

Req: Value lookup for Plant response rating, Velvetleaf; key = COC(=O)c1nc(-c2ccc(S(C)(=O)=O)cc2)nc(N)c1Cl
Resp: 0

Req: Value lookup for Plant response rating, Velvetleaf; key = COC(=O)c1nc(-c2cccc(C)c2)nc(N)c1Cl
Resp: 60

---

- Test system: ducksalad (Heteranthera limosa)
- testProtocol: Test E flooded paddy water application
- Type: in vivo
- conditions: Flood, 16 g ai/ha; scale 0 to 100 (0 no effect, 100 complete control); 21 days
So I've got a bunch of molecules here, and I need their Plant response rating, Ducksalad values.
In your answer, state the number alone without any accompanying words.

Req: Requested read-out Plant response rating, Ducksalad, target or system ducksalad (Heteranthera limosa), entry CNc1nc(-c2ccc(Cl)cc2)nc(C(=O)OC)c1Cl [Compound 111]
Resp: 0

Req: Requested read-out Plant response rating, Ducksalad, target or system ducksalad (Heteranthera limosa), entry CCOC(=O)c1nc(-c2ccc(C)c(C)c2)nc(N)c1Br [Compound 70]
Resp: 0

Req: Requested read-out Plant response rating, Ducksalad, target or system ducksalad (Heteranthera limosa), entry CCOC(=O)c1nc(-c2ccc3c(c2)OCO3)nc(N)c1Cl [Compound 74]
Resp: 100

Req: Requested read-out Plant response rating, Ducksalad, target or system ducksalad (Heteranthera limosa), entry CCOC(=O)c1nc(-c2ccc(F)cc2)nc(N)c1Br [Compound 63]
Resp: 30

Req: Requested read-out Plant response rating, Ducksalad, target or system ducksalad (Heteranthera limosa), entry CCOC(=O)c1nc(-c2ccc(OC)cc2)nc(N)c1Cl [Compound 98]
Resp: 0

Req: Requested read-out Plant response rating, Ducksalad, target or system ducksalad (Heteranthera limosa), entry CCOC(=O)c1nc(-c2ccc(Cl)c(Cl)c2)nc(N)c1Cl [Compound 73]
Resp: 75

---

- Tested on: bearded (brdd.) sprangletop (Leptochloa fusca ssp. fascicularis)
- testProtocol: Test E flooded paddy water application
- Type: in vivo
- conditions: 250 g ai/ha; Flood; 21 days; scale 0 to 100 (0 no effect, 100 complete control)
assayMetric: Sprangletop, Brdd. plant response rating
In your answer, state the number alone without any accompanying words.

Req: Value lookup for Sprangletop, Brdd. plant response rating; key = CCOC(=O)c1nc(-c2ccc(I)cc2)nc(N)c1Cl
Resp: 0

Req: Value lookup for Sprangletop, Brdd. plant response rating; key = CCOC(=O)c1nc(-c2ccc(C)c(C)c2)nc(N)c1Br
Resp: 0

Req: Value lookup for Sprangletop, Brdd. plant response rating; key = Nc1nc(-c2ccc(Br)cc2)nc(C(=O)O)c1Cl
Resp: 0

Req: Value lookup for Sprangletop, Brdd. plant response rating; key = Cc1ccc(-c2nc(N)c(Cl)c(C(=O)O)n2)cc1
Resp: 30

Req: Value lookup for Sprangletop, Brdd. plant response rating; key = Nc1nc(-c2ccc(Cl)cc2)nc(C(=O)OCc2ccccc2)c1Cl
Resp: 85

---

- Test system: woolly cupgrass (Eriochloa villosa)
- testProtocol: Test C pre/postemergence
- Type: in vivo
- conditions: Preemergence, 500 g ai/ha; scale 0 to 100
So I've got a bunch of compounds here, and I need their Plant response rating, Cupgrass, Woolly values.
In your answer, state the number alone without any accompanying words.

Req: Value lookup for Plant response rating, Cupgrass, Woolly; key = COC(=O)CNc1nc(C2CC2)nc(C(=O)OC)c1Br
Resp: 0

Req: Value lookup for Plant response rating, Cupgrass, Woolly; key = CN(C)N=Cc1nc(C2CC2)nc(N)c1Br
Resp: 40

Req: Value lookup for Plant response rating, Cupgrass, Woolly; key = COC(=O)c1nc(C2CC2C)nc(N)c1Br (centres unmarked)
Resp: 0

Req: Value lookup for Plant response rating, Cupgrass, Woolly; key = CCCOC(=O)c1nc(C2CC2)nc(N)c1Br
Resp: 95

Req: Value lookup for Plant response rating, Cupgrass, Woolly; key = CCOC(=O)Cc1nc(C2CC2)nc(N=CN(C)C)c1Br
Resp: 0

---

- System: giant foxtail (Setaria faberii)
- testProtocol: Test B pre/postemergence
- Type: in vivo
- conditions: Setaria faberi, post-emergence, Postemergence, 500 g ai/ha; scale 0 to 100; read-out: Plant response rating, Foxtail, Giant
So I've got a bunch of compounds here, and I need their pest or weed control at 500 g/ha values.
Give the value, in units of %, as a plain number.

Req: Requested read-out pest or weed control at 500 g/ha, target or system giant foxtail (Setaria faberii), entry COC(=O)c1nc(C(C)C)nc(N)c1Br [Compound 3]
Resp: 40

Req: Requested read-out pest or weed control at 500 g/ha, target or system giant foxtail (Setaria faberii), entry Nc1nc(C2CC2)nc(C=O)c1Br [Compound 26]
Resp: 40

Req: Requested read-out pest or weed control at 500 g/ha, target or system giant foxtail (Setaria faberii), entry Nc1nc(C2CC2)nc(C(=O)O)c1Br [Compound 8]
Resp: 90

Req: Requested read-out pest or weed control at 500 g/ha, target or system giant foxtail (Setaria faberii), entry COC(=O)c1nc(C2CC2)nc(N)c1Br [Compound 2]
Resp: 80

---

- System: transplanted rice seedlings (Oryza sativa cv. ‘Japonica-M202’)
- testProtocol: Test E flooded paddy water application
- Format: in vivo
- conditions: 125 g ai/ha; Flood; 21 days; scale 0 to 100 (0 no effect, 100 complete control)
So I've got a bunch of molecules here, and I need their Rice, Transplanted plant response rating values.
In your answer, state the number alone without any accompanying words.

Req: Value lookup for Rice, Transplanted plant response rating; key = CCOC(=O)c1nc(-c2ccc(Cl)cc2F)nc(N)c1Br [Compound 69]
Resp: 0

Req: Value lookup for Rice, Transplanted plant response rating; key = Nc1nc(-c2ccc(Br)cc2)nc(C(=O)O)c1Cl [Compound 95]
Resp: 0

Req: Value lookup for Rice, Transplanted plant response rating; key = CCOC(=O)c1nc(-c2ccc(I)cc2)nc(N)c1Cl [Compound 133]
Resp: 0

Req: Value lookup for Rice, Transplanted plant response rating; key = CCOC(=O)c1nc(-c2ccc(Cl)c(Cl)c2)nc(N)c1Cl [Compound 73]
Resp: 0

Req: Value lookup for Rice, Transplanted plant response rating; key = Nc1nc(-c2ccc(Cl)cc2)nc(C(=O)O)c1Cl [Compound 65]
Resp: 0

---

- Test system: smallflower umbrella sedge (Cyperus difformis)
- testProtocol: Test E flooded paddy water application
- Format: in vivo
- conditions: 125 g ai/ha; Flood; 21 days; scale 0 to 100 (0 no effect, 100 complete control)
assayMetric: Sedge, Umbrella plant response rating
In your answer, state the number alone without any accompanying words.

Req: Value lookup for Sedge, Umbrella plant response rating; key = COC(=O)c1nc(-c2ccc(Br)cc2)nc(N)c1Cl [Compound 96]
Resp: 100

Req: Value lookup for Sedge, Umbrella plant response rating; key = CCOC(=O)c1nc(-c2ccc(I)cc2)nc(N)c1Cl [Compound 133]
Resp: 100

Req: Value lookup for Sedge, Umbrella plant response rating; key = COC(=O)c1nc(-c2ccc(C(F)(F)F)cc2)nc(N)c1Cl [Compound 44]
Resp: 90

Req: Value lookup for Sedge, Umbrella plant response rating; key = CCOC(=O)c1nc(-c2ccc(Br)cc2)nc(N)c1Cl [Compound 94]
Resp: 100

Req: Value lookup for Sedge, Umbrella plant response rating; key = CCOC(=O)c1nc(-c2ccc3c(c2)OCO3)nc(N)c1Cl [Compound 74]
Resp: 95

---

- Test system: chickweed (Stellaria media)
- testProtocol: Test C postemergence
- Format: in vivo
- conditions: 125 g ai/ha, scale 0 to 100 (0 no effect, 100 complete control)
assayMetric: Chickweed plant response rating
In your answer, state the number alone without any accompanying words.

Req: Value lookup for Chickweed plant response rating; key = CCOC(=O)c1nc(-c2ccc(I)cc2)nc(N)c1Cl [Compound 133]
Resp: 45

Req: Value lookup for Chickweed plant response rating; key = CCOC(=O)C(OC(C)=O)c1nc(C2CC2)nc(N)c1Br (stereo not shown) [Compound 47]
Resp: 0

Req: Value lookup for Chickweed plant response rating; key = CCCCOC(=O)c1nc(C2CC2)nc(N)c1Cl [Compound 76]
Resp: 95

Req: Value lookup for Chickweed plant response rating; key = CCOC(=O)c1nc(-c2ccc(Cl)cc2)nc(N)c1Br [Compound 37]
Resp: 0
